Tested on: Fusarium graminearum
experiment.notes: Antifungal activity against Fusarium graminearum at 150 uM
Assay type: functional
property.label: inhibition at 150 µM

Check out these entries, answers already filled in.
compound: CC(C)(C)C(=O)Oc1ccc2c(c1)C[C@@H]1[C@@]3(C)CCCC(C)(C)[C@@H]3CC[C@@]1(C)O2
inhibition at 150 µM: < 60%

compound: COc1ccc(C(=O)Oc2ccc3c(c2)C[C@@H]2[C@@]4(C)CCCC(C)(C)[C@@H]4CC[C@@]2(C)O3)cc1
inhibition at 150 µM: < 60%

Find the recorded inhibition at 150 µM belonging to CC1(C)CCC[C@@]2(C)C1CC[C@@]1(C)Oc3ccc(-c4ccsc4)cc3C[C@@H]12 (some centres undefined) and report it. < 60%

Using the record for Cc1cc(O)c(C[C@@H]2[C@@]3(C)CCCC(C)(C)[C@@H]3CC[C@@]2(C)O)c(O)c1 [ALBACONOL] , report its inhibition at 150 µM. 43%
